experiment: MTT cell viability assay, fR2 normal breast epithelial cells
Type: cell-based, human
details: human, fR2 normal breast epithelial cells, 48 h, read-out: Cytotoxicity IC50, fR2
readout: IC50 at 48 h

Note to self: IC50 at 48 h recorded for CC1=C(CO)C(=O)OC(C(C)C2CCC3C4CC5OC56C(O)C5ON=C(c7ccccc7C(F)(F)F)C5C(=O)C6(C)C4CCC23C)C1 (stereo not drawn) was 28.2 µM

Note to self: IC50 at 48 h recorded for CC1=C(CO)C(=O)O[C@@H]([C@@H](C)[C@H]2CC[C@H]3[C@@H]4C[C@H]5O[C@]56[C@@H](O)C=CC(=O)[C@]6(C)[C@H]4CC[C@]23C)C1 was 43.3 µM

Note to self: IC50 at 48 h recorded for CC1=C(CO)C(=O)OC(C(C)C2CCC3C4CC5OC56C(O)C5ON=C(c7ccncc7)C5C(=O)C6(C)C4CCC23C)C1 (stereo not drawn) was > 100 µM
